- Test system: 996289-038-R-J1-PDC spheroid viability
- PROCEDURE TEXT: Anticancer human tumor 996289-038-R-J1-PDC patient-derived colon adenocarcinoma cell line growth inhibition [PI3K]; active = viability on the fitted dose curve at most 10% of control; inactive = the rest
- CONDITION PARAMETERS: second compound 0.316 µM; first compound 10 µM; spheroids with HUVEC and MSC
Outcome codes: active, inactive

CC(Cn1ccc(-c2ccc(C#N)c(Cl)c2)n1)NC(=O)c1cc(C(C)O)[nH]n1 (stereo unspecified) + CC(Nc1ccc2c(c1)OCCn1cc(N3C(=O)OCC3C(F)F)nc1-2)C(N)=O = inactive
CCCS(=O)(=O)Nc1ccc(F)c(C(=O)c2c[nH]c3ncc(-c4ccc(Cl)cc4)cc23)c1F + Cc1nc(NC(=O)N2CCCC2C(N)=O)sc1-c1ccnc(C(C)(C)C(F)(F)F)c1 = inactive
C[C@@H](NC(=O)c1ncnc(N)c1Cl)c1ncc(C(=O)Nc2cc(C(F)(F)F)c(Cl)cn2)s1 + CC(Nc1ccc2c(c1)OCCn1cc(N3C(=O)OCC3C(F)F)nc1-2)C(N)=O = inactive
CC1(C)CCC(Nc2ncc(C(F)(F)F)c(-c3c[nH]c4c(P(C)(C)=O)c(C#N)ccc34)n2)CN1 (stereo unspecified) + CC(Nc1ncnc2nc[nH]c12)c1cc2cccc(Cl)c2c(=O)n1-c1ccccc1 = inactive
CC1(C)CCC(Nc2ncc(C(F)(F)F)c(-c3c[nH]c4c(P(C)(C)=O)c(C#N)ccc34)n2)CN1 (stereo unspecified) + CC(Nc1ccc2c(c1)OCCn1cc(N3C(=O)OCC3C(F)F)nc1-2)C(N)=O = inactive
Cn1ncc(Cl)c1-c1cc(C(=O)NC(CN)Cc2cccc(F)c2)sc1Cl (stereo unspecified) + CC(Nc1ncnc2nc[nH]c12)c1cc2cccc(Cl)c2c(=O)n1-c1ccccc1 = inactive
C#Cc1c(F)ccc2cc(O)cc(-c3ncc4c(N5CC6CCC(C5)N6)nc(OCC56CCCN5CC(F)C6)nc4c3F)c12 (stereo unspecified) + COc1c(OCCCN2CCOCC2)ccc2c3n(c(=NC(=O)c4cnc(N)nc4)nc12)CCN3 = active
CNC(=O)c1ccc(N2C(=S)N(c3ccc(C#N)c(C(F)(F)F)c3)C(=O)C2(C)C)cc1F + COc1c(OCCCN2CCOCC2)ccc2c3n(c(=NC(=O)c4cnc(N)nc4)nc12)CCN3 = inactive
Cn1nccc1Nc1nccc(-c2ccn(C(CO)c3ccc(Cl)c(F)c3)c(=O)c2)n1 (stereo unspecified) + COc1c(OCCCN2CCOCC2)ccc2c3n(c(=NC(=O)c4cnc(N)nc4)nc12)CCN3 = inactive
CC(C)NCC(C(=O)N1CCN(c2ncnc3c2C(C)CC3O)CC1)c1ccc(Cl)cc1 (stereo unspecified) + CC(Nc1ncnc2nc[nH]c12)c1cc2cccc(Cl)c2c(=O)n1-c1ccccc1 = inactive
C#Cc1c(F)ccc2cc(O)cc(-c3ncc4c(N5CC6CCC(C5)N6)nc(OCC56CCCN5CC(F)C6)nc4c3F)c12 (stereo unspecified) + Cc1nc(NC(=O)N2CCCC2C(N)=O)sc1-c1ccnc(C(C)(C)C(F)(F)F)c1 = inactive

###

- System: 996289-038-R-J1-PDC spheroid viability
- PROCEDURE TEXT: Anticancer human tumor 996289-038-R-J1-PDC cell line growth inhibition [PI3K];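 also: spheroids exposed to compounds for seven days before viability read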;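 as to viability, T/C: luminescence used as a proxy for viable cell amount; percent viability relative to DMSO vehicle control as 100%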
- CONDITION PARAMETERS: second compound 0.00316 µM; first compound 0.1 µM; stronger effect = lower value; spheroids with HUVEC and MSC
Fulfilled if viability, T/C is below 90%. Not fulfilled if not; exact matches included in Not fulfilled.

Cn1nccc1Nc1nccc(-c2ccn(C(CO)c3ccc(Cl)c(F)c3)c(=O)c2)n1 (stereo unspecified) + CC(Nc1ccc2c(c1)OCCn1cc(N3C(=O)OCC3C(F)F)nc1-2)C(N)=O = Not fulfilled
CC(C)n1nc(-c2ccc3oc(N)nc3c2)c2c(N)ncnc21 + CC(Nc1ccc2c(c1)OCCn1cc(N3C(=O)OCC3C(F)F)nc1-2)C(N)=O = Fulfilled
CC(C)NCC(C(=O)N1CCN(c2ncnc3c2C(C)CC3O)CC1)c1ccc(Cl)cc1 (stereo unspecified) + COc1c(OCCCN2CCOCC2)ccc2c3n(c(=NC(=O)c4cnc(N)nc4)nc12)CCN3 = Fulfilled
Cn1ncnc1[C@H]1c2n[nH]c(=O)c3cc(F)cc(c23)N[C@@H]1c1ccc(F)cc1 + COc1c(OCCCN2CCOCC2)ccc2c3n(c(=NC(=O)c4cnc(N)nc4)nc12)CCN3 = Not fulfilled
Cn1ncc(Cl)c1-c1cc(C(=O)NC(CN)Cc2cccc(F)c2)sc1Cl (stereo unspecified) + CC(Nc1ccc2c(c1)OCCn1cc(N3C(=O)OCC3C(F)F)nc1-2)C(N)=O = Fulfilled
CC1(C)CCC(Nc2ncc(C(F)(F)F)c(-c3c[nH]c4c(P(C)(C)=O)c(C#N)ccc34)n2)CN1 (stereo unspecified) + COc1c(OCCCN2CCOCC2)ccc2c3n(c(=NC(=O)c4cnc(N)nc4)nc12)CCN3 = Fulfilled
CC(=O)c1c(C)c2cnc(Nc3ccc(N4CCNCC4)cn3)nc2n(C2CCCC2)c1=O + COc1c(OCCCN2CCOCC2)ccc2c3n(c(=NC(=O)c4cnc(N)nc4)nc12)CCN3 = Fulfilled
C[C@@H](NC(=O)c1ncnc(N)c1Cl)c1ncc(C(=O)Nc2cc(C(F)(F)F)c(Cl)cn2)s1 + CC(Nc1ccc2c(c1)OCCn1cc(N3C(=O)OCC3C(F)F)nc1-2)C(N)=O = Not fulfilled

###

# viability, T/C listing for each entry below
- Test system: 996289-038-R-J1-PDC spheroid viability
- PROCEDURE TEXT: Anticancer human tumor 996289-038-R-J1-PDC cell line growth inhibition [PI3K];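 also: spheroids exposed to compounds for seven days before viability read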;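 as to viability, T/C: luminescence used as a proxy for viable cell amount; percent viability relative to DMSO vehicle control as 100%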
- CONDITION PARAMETERS: second compound 0.1 µM; first compound 0.1 µM; stronger effect = lower value; spheroids with HUVEC and MSC
PROPERTY MEASURED: viability, T/C (%)

CCN1CCN(Cc2ccc(Nc3ncc(F)c(-c4cc(F)c5nc(C)n(C(C)C)c5c4)n3)nc2)CC1 + CC(Nc1ncnc2nc[nH]c12)c1cc2cccc(Cl)c2c(=O)n1-c1ccccc1 = 86.7
CC1(C)CCC(CN2CCN(c3ccc(C(=O)NS(=O)(=O)c4ccc(NCC5CCOCC5)c([N+](=O)[O-])c4)c(Oc4cnc5[nH]ccc5c4)c3)CC2)=C(c2ccc(Cl)cc2)C1 + COc1c(OCCCN2CCOCC2)ccc2c3n(c(=NC(=O)c4cnc(N)nc4)nc12)CCN3 = 62.5
CC1(C)CCC(Nc2ncc(C(F)(F)F)c(-c3c[nH]c4c(P(C)(C)=O)c(C#N)ccc34)n2)CN1 (stereo not given) + CC(Nc1ccc2c(c1)OCCn1cc(N3C(=O)OCC3C(F)F)nc1-2)C(N)=O = 76.3
Cn1nccc1Nc1nccc(-c2ccn(C(CO)c3ccc(Cl)c(F)c3)c(=O)c2)n1 (stereo not given) + CC(Nc1ccc2c(c1)OCCn1cc(N3C(=O)OCC3C(F)F)nc1-2)C(N)=O = 89.6
C#Cc1c(F)ccc2cc(O)cc(-c3ncc4c(N5CC6CCC(C5)N6)nc(OCC56CCCN5CC(F)C6)nc4c3F)c12 (stereo not given) + CC(Nc1ccc2c(c1)OCCn1cc(N3C(=O)OCC3C(F)F)nc1-2)C(N)=O = 69.6

###

- System: 996289-038-R-J1-PDC spheroid viability
- PROCEDURE TEXT: Anticancer human tumor 996289-038-R-J1-PDC cell line growth inhibition [PI3K];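 also: spheroids exposed to compounds for seven days before viability read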
- CONDITION PARAMETERS: curve of compound; spheroids with HUVEC and MSC
# IC50 listing for each entry below
PROPERTY MEASURED: IC50

C[C@@H](NC(=O)c1ncnc(N)c1Cl)c1ncc(C(=O)Nc2cc(C(F)(F)F)c(Cl)cn2)s1 = > 10 µM
C#Cc1c(F)ccc2cc(O)cc(-c3ncc4c(N5CC6CCC(C5)N6)nc(OCC56CCCN5CC(F)C6)nc4c3F)c12 (centres undefined) = 1.79 µM [middle of 4 runs]
CCN1CCN(Cc2ccc(Nc3ncc(F)c(-c4cc(F)c5nc(C)n(C(C)C)c5c4)n3)nc2)CC1 = > 1 µM
CC(=O)c1c(C)c2cnc(Nc3ccc(N4CCNCC4)cn3)nc2n(C2CCCC2)c1=O = > 0.1 µM
Cn1cnc2c(F)c(Nc3ccc(Br)cc3Cl)c(C(=O)NOCCO)cc21 = 229 nM [middle of 4 runs]
CNC(=O)c1ccc(N2C(=S)N(c3ccc(C#N)c(C(F)(F)F)c3)C(=O)C2(C)C)cc1F = > 10 µM
CC1(C)CCC(Nc2ncc(C(F)(F)F)c(-c3c[nH]c4c(P(C)(C)=O)c(C#N)ccc34)n2)CN1 (centres undefined) = 6.64 µM [middle of 4 runs]
CC(C)NCC(C(=O)N1CCN(c2ncnc3c2C(C)CC3O)CC1)c1ccc(Cl)cc1 (centres undefined) = > 10 µM
CC(Cn1ccc(-c2ccc(C#N)c(Cl)c2)n1)NC(=O)c1cc(C(C)O)[nH]n1 (centres undefined) = > 10 µM
